Test system: human oral cavity cancer cell (KB)
run.description: Cytotoxicity, resazurin microplate assay (REMA), KB
experimental.conditions: Homo sapiens, KB, 120 h, read-out: Cytotoxicity (IC50) KB, KB cells, REMA, 5 days; value in parentheses
Note: every record was labeled by where its IC50 sits among low bracket: < 10 µM; middle bracket: ≥ 10 µM and < 100 µM; high bracket: ≥ 100 µM

Sample answers from the record:
* C=C1CC[C@H]2C(C)(C)CCC[C@]2(C)[C@H]1C[C@@H](O)C1=CC(O)OC1=O (some centres unmarked) [Compound 10, zerumin B] | middle bracket
* C=C1CC[C@H]2C(C)(C)CCC[C@]2(C)[C@H]1CC=C(C=O)CC(=O)O (stereo in doubt) [Compound 9, zerumin A] | high bracket
* C=C1CC[C@H]2C(C)(C)CCC[C@]2(C)[C@H]1/C=C/C1=CCOC1=O [Compound 4, villosin] | middle bracket
* C=C1CC[C@H]2C(C)(C)CCC[C@]2(C)[C@H]1/C=C/c1ccoc1 [Compound 1, coronarin E] | middle bracket
* C=C1CCC2C(C)(C)CCC[C@]2(C)[C@H]1/C=C/C1=CC(OC)OC1=O (some centres unmarked) [Compound 6] | middle bracket

[Q] Which of the defined bands does the recorded IC50 of Cc1c2ccncc2c(C)c2c1[nH]c1ccccc12 [Ellipticine, reference compound] sit within?
[A] low bracket

[Q] Which of the defined bands does the recorded IC50 of COc1cccc2c1C(=O)c1c(O)c3c(c(O)c1C2=O)C[C@@](O)(C(=O)CO)C[C@@H]3O[C@H]1C[C@H](N)[C@H](O)[C@H](C)O1 [Doxorubicin, reference compound] sit within?
[A] low bracket

====

Recorded measurements of Selectivity Index NCI-H187, one per entry
Tested on: human small cell lung cancer cell (NCI-H187)
run.description: Cytotoxicity, resazurin microplate assay (REMA), NCI-H187
experimental.conditions: IC50 on Vero cells divided by IC50 for NCI-H187 cells
Lab note: jot down the number only; don't add units.

Worked examples follow.
- C=C1CC[C@H]2C(C)(C)CCC[C@]2(C)[C@H]1C/C=C(/C=O)CC=O [Compound 5, (E)-labda-8(17),12-dien-15,16-dial]: 2.0
- C=C1CC[C@H]2C(C)(C)CCC[C@]2(C)[C@H]1/C=C/C1=CC(=O)OC1O (stereo partly drawn): 7.5
- C=C1CC[C@H]2C(C)(C)CCC[C@]2(C)[C@H]1C[C@@H](O)C1=CC(O)OC1=O (stereo partly drawn): 4.0
- C=C1CCC2C(C)(C)CCC[C@]2(C)[C@H]1/C=C/C1=CC(OC)OC1=O (stereo partly drawn): 50.7

[Q] Respond only with Selectivity Index NCI-H187 recorded for C=C1CC[C@H]2C(C)(C)CCC[C@]2(C)[C@H]1CC=C(C=O)CC(=O)O (stereo in doubt)
[A] 1.5

[Q] Respond only with Selectivity Index NCI-H187 recorded for C=C1CC[C@H]2C(C)(C)CCC[C@]2(C)[C@H]1C/C=C1\CC(O)OC1=O (stereo partly drawn)
[A] 1.9

[Q] Respond only with Selectivity Index NCI-H187 recorded for Cc1c2ccncc2c(C)c2c1[nH]c1ccccc12 [Ellipticine, reference compound]
[A] 3.1

[Q] Respond only with Selectivity Index NCI-H187 recorded for C=C1CC[C@H]2C(C)(C)CCC[C@]2(C)[C@H]1/C=C/c1ccoc1
[A] 1.4

====

run.description: in vitro
experimental.conditions: African green monkey, Vero cells (African green monkey kidney, non-cancerous)
Recorded measurements of IC50 at 4 days, one per entry

Worked examples follow.
• C=C1CC[C@H]2C(C)(C)CCC[C@]2(C)[C@H]1/C=C/C1=CCOC1=O [Compound 4, villosin] = > 166 µM
• C=C1CC[C@H]2C(C)(C)CCC[C@]2(C)[C@H]1/C=C/C(=O)O [Compound 3] = > 191 µM

Here is another molecule to look at.
[Q] Respond only with IC50 at 4 days recorded for C=C1CC[C@H]2C(C)(C)CCC[C@]2(C)[C@H]1/C=C/C(C)=O [Compound 2]
[A] > 192 µM

====

System: human oral cavity cancer cell (KB)
run.description: Cytotoxicity, resazurin microplate assay (REMA), KB
experimental.conditions: Homo sapiens, KB, 120 h, read-out: Cytotoxicity (IC50) KB, KB cells, REMA, 5 days; value in parentheses
measured.attribute: IC50
Answer format: number, then unit.

Worked examples follow.
* C=C1CC[C@H]2C(C)(C)CCC[C@]2(C)[C@H]1C/C=C1\CC(O)OC1=O (stereo partly shown) [Compound 8, coronarin D] | 126 µM
* C=C1CC[C@H]2C(C)(C)CCC[C@]2(C)[C@H]1/C=C/C1=CC(=O)OC1O (stereo partly shown) [Compound 7] | 2.75 µM

[Q] Print human oral cavity cancer cell (KB) IC50 for C=C1CC[C@H]2C(C)(C)CCC[C@]2(C)[C@H]1/C=C/C(C)=O [Compound 2] .
[A] 142 µM

[Q] Print human oral cavity cancer cell (KB) IC50 for C=C1CC[C@H]2C(C)(C)CCC[C@]2(C)[C@H]1C/C=C(/C=O)CC=O [Compound 5, (E)-labda-8(17),12-dien-15,16-dial] .
[A] 96 µM

Each recorded value in this set is attributed to paper PMC6273991.
